Origin of the recorded values: the supplement of paper PMC9694430

- Test system: LOC_OS07G06570-cb004
- ASSAY_METHOD_TEXT: thermal shift delta Tm vs DMSO control; higher = stronger stabilization (binding);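 also: purified Escherichia coli-expressed rice kinase domain construct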
- TEST_CONTEXT: 12.5 µM; protein concentration 2 µM
OBSERVATION_TYPE: thermal shift delta Tm (°C)
Answer in °C, number only, no unit symbol.

molecule=C=CCc1ccc(O)c(-c2ccc(O)c(CC=C)c2)c1 test_target=LOC_OS07G06570-cb004 observation_type="thermal shift delta Tm" output_unit=°C observed=0.49
molecule=C=CC(=O)N1CCC[C@@H](n2nc(-c3ccc(Oc4ccccc4)cc3)c3c(N)ncnc32)C1 test_target=LOC_OS07G06570-cb004 observation_type="thermal shift delta Tm" output_unit=°C observed=0.5
molecule=CN(C)C/C=C/C(=O)Nc1ccc(C(=O)Nc2cccc(Nc3ncc(Cl)c(-c4c[nH]c5ccccc45)n3)c2)cc1 test_target=LOC_OS07G06570-cb004 observation_type="thermal shift delta Tm" output_unit=°C observed=1.53
molecule=CCc1cncnc1N1CCN(Cc2nc3ccc(C(F)(F)F)cc3[nH]2)CC1 test_target=LOC_OS07G06570-cb004 observation_type="thermal shift delta Tm" output_unit=°C observed=0.84

[ask] Notebook: pull reported thermal shift delta Tm for LOC_OS07G06570-cb004, entry OC(c1cc(-c2ccc(Cl)cc2)nc2ccccc12)C1CCCCN1 (stereo not drawn)
[reply] 0.14

[ask] What measured thermal shift delta Tm is associated with COc1cc2nccc(Oc3ccc(NC(=O)c4cn(C(C)C)c(=O)n(-c5ccc(F)cc5)c4=O)cc3F)c2cc1OC on LOC_OS07G06570-cb004?
[reply] 1.78

[ask] Kindly state the measured thermal shift delta Tm obtained for O=c1cc(N2CCOCC2)oc2c(-c3ccccc3)cccc12 with LOC_OS07G06570-cb004.
[reply] 0.89

[ask] API: value(readout=thermal shift delta Tm, system=LOC_OS07G06570-cb004) for record CC(C)(C)S(=O)(=O)c1ccc2nccc(Nc3n[nH]c4ccc(F)cc34)c2c1
[reply] 0.6

[ask] Query the reported thermal shift delta Tm for LOC_OS07G06570-cb004; item: C[S+]([O-])c1ccc(-c2nc(-c3ccc(F)cc3)c(-c3ccncc3)[nH]2)cc1 (stereo not drawn)
[reply] 1.21

[ask] Item Cc1nc2c(-c3cnc(N)nc3)nc(N3CCOCC3)nc2n1C(C)C with LOC_OS07G06570-cb004 - thermal shift delta Tm?
[reply] 1.35

[ask] Short answer please: thermal shift delta Tm, LOC_OS07G06570-cb004, entry CCn1c(=O)c(-c2ccc(-c3cncs3)cc2Cl)cc2cnc(Nc3ccc(N4CCN(C)CC4)cc3)nc21
[reply] 0.84

[ask] What measured thermal shift delta Tm is associated with CCNC(=O)C#Cc1ccc2c(C(=Nc3ccc(CN(C)C)cc3)c3ccccc3)c(O)[nH]c2c1 on LOC_OS07G06570-cb004?
[reply] 0.62

[ask] Query for LOC_OS07G06570-cb004: what thermal shift delta Tm does the record show for Nc1ncnc2n[nH]c(Nc3ccc(F)cc3)c12 ?
[reply] 1.75

[ask] Record lookup: for LOC_OS07G06570-cb004, what thermal shift delta Tm belongs to CCc1ccc(/C=C2/SC(=S)NC2=O)cc1 ?
[reply] 1.65

----------
Reported thermal shift delta Tm values for a set of molecules
- Tested on: LOC_OS01G39600-cb002
- ASSAY_METHOD_TEXT: thermal shift delta Tm vs DMSO control; higher = stronger stabilization (binding)
- TEST_CONTEXT: 12.5 µM; protein concentration 2 µM
Write the numeric value and follow it with the unit.

Here is how some molecules turned out for thermal shift delta Tm.
molecule="Cc1ccc(Nc2nccc(N(C)c3ccc4c(C)n(C)nc4c3)n2)cc1S(N)(=O)=O [Pazopanib]" observed="1.25 °C"
molecule="OC1CCC(Nc2ncc3nc(Nc4c(F)cc(F)cc4F)n([C@H]4CCOC4)c3n2)CC1 (some centres undefined) [Tanzisertib(CC-930)]" observed="0.06 °C"
molecule="CN1CCN(c2ccc3nc(-c4c(N)c5c(F)cccc5[nH]c4=O)[nH]c3c2)CC1 [Dovitinib (TKI258) Lactate]" observed="4.79 °C"

// moving on: another record for thermal shift delta Tm
[ask] I'm curious: which thermal shift delta Tm was measured for C=CC(=O)N[C@H]1CCOC[C@H]1Nc1ncc2cc(-c3c(Cl)c(OC)cc(OC)c3Cl)ccc2n1 tested on LOC_OS01G39600-cb002?
[reply] -0.48 °C

----------
thermal shift delta Tm for assorted compounds
- Tested on: LOC_OS04G57630-cb004
- ASSAY_METHOD_TEXT: thermal shift delta Tm vs DMSO control; higher = stronger stabilization (binding)
- TEST_CONTEXT: 12.5 µM; protein concentration 2 µM
Provide the reading as a plain figure in °C.

Reference set, count: 3
structure_smiles_string=O=C(O)CCC(=O)Nc1ccc(Br)cn1 test_target=LOC_OS04G57630-cb004 output_unit=°C observed=0.15
structure_smiles_string=CCN(CC)CCCCNc1ncc2cc(-c3cc(OC)cc(OC)c3)c(NC(=O)NC(C)(C)C)nc2n1 test_target=LOC_OS04G57630-cb004 output_unit=°C observed=-0.1
structure_smiles_string=O=C(c1cccc(Cl)c1F)N1CCN(Cc2cccc(Nc3nccs3)n2)CC1 test_target=LOC_OS04G57630-cb004 output_unit=°C observed=1.01

[ask] Which thermal shift delta Tm value belongs to COc1cc2ncnc(Nc3cccc(Cl)c3F)c2cc1OC(=O)N1CCN(C)C[C@H]1C ?
[reply] 0.65

[ask] Dear colleague, I am looking for the recorded thermal shift delta Tm of the following compound: C=CC(=O)N1CCN(CCCn2c(=O)c(-c3c(Cl)c(OC)cc(OC)c3Cl)cc3cnc(NC)nc32)CC1
[reply] 0.34

----------
Quick reference for thermal shift delta Tm among some compounds
- Test system: LOC_OS02G14120-cb001
- ASSAY_METHOD_TEXT: thermal shift delta Tm vs DMSO control; higher = stronger stabilization (binding)
- TEST_CONTEXT: 12.5 µM; protein concentration 2 µM
Structures can show the parent of a compound that is named as a salt.
Entry rule: numbers only, all in °C.

These recorded examples may help you get a feel for the data.
compound=CO[C@@H](C(=O)N1Cc2[nH]nc(NC(=O)c3ccc(N4CCN(C)CC4)cc3)c2C1)c1ccccc1 observed=9.66
compound="CN1CC[C@H](c2c(O)cc(O)c3c(=O)cc(-c4ccccc4Cl)oc23)[C@H](O)C1 [Flavopiridol HCl]" observed=2.4
compound=C=CC(=O)Nc1cccc(Oc2nc(Nc3ccc(N4CCN(C)CC4)cc3OC)ncc2Cl)c1 observed=0.27
compound=CC(C)(C)c1cc(NC(=O)Nc2ccc(Oc3ccnc4[nH]c(=O)cnc34)cc2F)n(-c2ccccc2)n1 observed=4.49
compound=C[C@H](NC(=O)c1c(N)nn2cccnc12)c1cc2cccc(C#Cc3cnn(C)c3)c2c(=O)n1-c1ccccc1 observed=0.56

Now take the following compound into account.
[ask] Give its thermal shift delta Tm value. Item: COc1ccc(Cl)cc1NC(=O)Nc1cc(C)nc2ccccc12
[reply] 0.14

----------
- Test system: LOC_OS06G16330-cb003
- Sequence (as listed by the source): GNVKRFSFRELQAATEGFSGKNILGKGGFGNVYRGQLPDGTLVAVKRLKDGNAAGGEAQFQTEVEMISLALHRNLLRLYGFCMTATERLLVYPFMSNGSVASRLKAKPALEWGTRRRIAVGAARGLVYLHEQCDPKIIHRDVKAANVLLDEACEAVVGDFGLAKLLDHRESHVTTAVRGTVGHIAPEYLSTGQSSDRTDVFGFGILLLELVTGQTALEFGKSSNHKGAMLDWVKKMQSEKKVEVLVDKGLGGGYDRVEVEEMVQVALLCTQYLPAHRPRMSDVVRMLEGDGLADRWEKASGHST
- ASSAY_METHOD_TEXT: thermal shift delta Tm vs DMSO control; higher = stronger stabilization (binding)
- TEST_CONTEXT: 12.5 µM; protein concentration 2 µM
thermal shift delta Tm by entry:
Give just the number in °C; leave the unit off.

Use the examples below as a reference point.
structure_smiles_string=CCS(=O)(=O)N1CCN(c2ccc(Nc3ncc(C(N)=O)c(NC4CC4)n3)cc2)CC1 output_unit=°C observed=5.15
structure_smiles_string=COc1cc2c(Nc3ccc(NC(=O)c4ccccc4)cc3)ncnc2cc1OCCCN1CCOCC1 output_unit=°C observed=1.97
structure_smiles_string=CCCNC(=O)c1cn2ncnc(Nc3cc(C(=O)NC4CC4)ccc3C)c2c1C output_unit=°C observed=-0.22
structure_smiles_string=COC1(c2sc3c(N4CCOCC4)nc(-c4cnc(N)nc4)nc3c2C)COC1 output_unit=°C observed=3.12

Shifting focus to the compound that follows.
[ask] Look up thermal shift delta Tm for this compound: O=c1cc(-c2cccc3c2Sc2ccccc2S3)oc(N2CCOCC2)c1
[reply] -0.34

----------
- Tested on: LOC_OS01G51400-cb002
- ASSAY_METHOD_TEXT: thermal shift delta Tm vs DMSO control; higher = stronger stabilization (binding)
- TEST_CONTEXT: 12.5 µM; protein concentration 2 µM
Structures can show the parent of a compound that is named as a salt.
Examples of compounds with documented thermal shift delta Tm follow.
Number in °C, nothing else.

Below, each entry is followed by its recorded thermal shift delta Tm result.
compound=C=CC(=O)Nc1cccc(C)c1Nc1ncc2cc(-c3c(Cl)c(OC)cc(OC)c3Cl)ccc2n1 test_target=LOC_OS01G51400-cb002 observation_type="thermal shift delta Tm" output_unit=°C observed=0.29
compound=O=C(c1cccc(Cl)c1F)N1CCN(Cc2cccc(Nc3nccs3)n2)CC1 test_target=LOC_OS01G51400-cb002 observation_type="thermal shift delta Tm" output_unit=°C observed=0.25
compound=Cc1cc(Nc2cc(N3CCN(C)CC3)nc(/C=C/c3ccccc3)n2)n[nH]1 test_target=LOC_OS01G51400-cb002 observation_type="thermal shift delta Tm" output_unit=°C observed=0.24
compound=O=C1NC(=O)C(c2cnc3ccccn23)=C1c1cn2c3c(cc(F)cc13)CN(C(=O)N1CCCCC1)CC2 test_target=LOC_OS01G51400-cb002 observation_type="thermal shift delta Tm" output_unit=°C observed=0.37

[ask] What does the record list as thermal shift delta Tm for O=C(Nc1cccc(Cl)c1)Nc1ncc(CCNc2ncnc3ccsc23)s1 [SNS-314 Mesylate] ?
[reply] 0.41

[ask] Requested field: thermal shift delta Tm. Item: O=c1ncn2nc(Sc3ccc(F)cc3F)ccc2c1-c1c(Cl)cccc1Cl
[reply] 0.15

[ask] Reported thermal shift delta Tm for COc1cc2ncnc(Sc3nnc(C)s3)c2cc1OC : what is it?
[reply] 0.02
